In this section we review reported % of the active ingredient in the pheromone values for a set of compounds.
# ASSAY DETAILS: Indirect assay of diffuser blocks (GC/FID, pheromone remaining in the block)
# Type: physicochemical
# PROTOCOL CONDITIONS: despecified pheromone, day 14
MEASURED METRIC: % of the active ingredient in the pheromone (%)

>>> assay_value("CCCCCCCCCCCCCC(=O)OC [methyl myristate, methyl tetradecanoate]")
11.9
>>> assay_value("CCCCCCCC/C=C\\CCCCCCCC(=O)OC [methyl oleate, methyl (Z)-octadec-9-enoate]")
30.6
>>> assay_value("CCCCCCCCCCCCCCCC(=O)OC [methyl palmitate, methyl hexadecanoate]")
27.1
>>> assay_value("CCCCC/C=C\\C/C=C\\CCCCCCCC(=O)OC [methyl linoleate, methyl (9Z,12Z)-octadeca-9,12-dienoate]")
30.4

---

# ASSAY DETAILS: Ratios of molecules diffused through the sticks over time
# Assay type: physicochemical
# PROTOCOL CONDITIONS: F3P, 24 h after immersion of the sticks
MEASURED METRIC: ratio of molecules diffused through the sticks

>>> assay_value("COC(=O)CCCCCC(=O)OC [dimethyl pimelate, dimethyl heptanedioate]")
"56 % (w/w)"
>>> assay_value("CCCCCCCCCCCCCCCCCC(=O)OC [methyl stearate, methyl octadecanoate]")
"0.1 % (w/w)"
>>> assay_value("CCCCCCCCCCCCCCCC(=O)OC [methyl palmitate, methyl hexadecanoate]")
"1 % (w/w)"
>>> assay_value("COC(=O)CCCCCCCC(=O)OC [dimethyl azelate, dimethyl nonanedioate]")
"18 % (w/w)"
>>> assay_value("CCCCCCCC/C=C\\CCCCCCCC(=O)OC [methyl oleate, methyl (Z)-octadec-9-enoate]")
"0.6 % (w/w)"
>>> assay_value("CCCCCCCCCCCCCC(=O)OC [methyl myristate, methyl tetradecanoate]")
"4 % (w/w)"
>>> assay_value("CCCCC/C=C\\C/C=C\\CCCCCCCC(=O)OC [methyl linoleate, methyl (9Z,12Z)-octadeca-9,12-dienoate]")
"0.3 % (w/w)"
>>> assay_value("CCCCCCCCCCCC(=O)OC [methyl laurate, methyl dodecanoate]")
"20 % (w/w)"

---

# ASSAY DETAILS: Pheromone migrated to the stick tips (GC/FID)
# Type: physicochemical
# PROTOCOL CONDITIONS: on stick tips, despecified pheromone, day 7
MEASURED METRIC: % of the active ingredient in the pheromone (%)

>>> assay_value("CCCCC/C=C\\C/C=C\\CCCCCCCC(=O)OC [methyl linoleate, methyl (9Z,12Z)-octadeca-9,12-dienoate]")
29.7
>>> assay_value("CCCCCCCCCCCCCC(=O)OC [methyl myristate, methyl tetradecanoate]")
9.2
>>> assay_value("CCCCCCCC/C=C\\CCCCCCCC(=O)OC [methyl oleate, methyl (Z)-octadec-9-enoate]")
31.3
>>> assay_value("CCCCCCCCCCCCCCCC(=O)OC [methyl palmitate, methyl hexadecanoate]")
29.8

---

# ASSAY DETAILS: Indirect assay of rod diffuser solution (GC/FID)
# Format: physicochemical
# PROTOCOL CONDITIONS: stick diffuser solution, despecified pheromone, day 0
# Lookup of reported % of the active ingredient in the pheromone keyed by entry
MEASURED METRIC: % of the active ingredient in the pheromone (%)

>>> assay_value("CCCCCCCCCCCCCC(=O)OC [methyl myristate, methyl tetradecanoate]")
11.9
>>> assay_value("CCCCCCCCCCCCCCCC(=O)OC [methyl palmitate, methyl hexadecanoate]")
27.3
>>> assay_value("CCCCCCCC/C=C\\CCCCCCCC(=O)OC [methyl oleate, methyl (Z)-octadec-9-enoate]")
30.8
>>> assay_value("CCCCC/C=C\\C/C=C\\CCCCCCCC(=O)OC [methyl linoleate, methyl (9Z,12Z)-octadeca-9,12-dienoate]")
30.0

---

# ASSAY DETAILS: Indirect assay of diffuser blocks (GC/FID, pheromone remaining in the block)
# Format: physicochemical
# PROTOCOL CONDITIONS: despecified pheromone, day 21
MEASURED METRIC: % of the active ingredient in the pheromone (%)

>>> assay_value("CCCCC/C=C\\C/C=C\\CCCCCCCC(=O)OC [methyl linoleate, methyl (9Z,12Z)-octadeca-9,12-dienoate]")
30.5
>>> assay_value("CCCCCCCCCCCCCCCC(=O)OC [methyl palmitate, methyl hexadecanoate]")
27.1
>>> assay_value("CCCCCCCCCCCCCC(=O)OC [methyl myristate, methyl tetradecanoate]")
11.7
>>> assay_value("CCCCCCCC/C=C\\CCCCCCCC(=O)OC [methyl oleate, methyl (Z)-octadec-9-enoate]")
30.7

---

# ASSAY DETAILS: Ratios of molecules diffused through the sticks over time
# Assay type: physicochemical
# PROTOCOL CONDITIONS: DAP, 24 h after immersion of sticks
MEASURED METRIC: ratio of molecules diffused through the sticks

>>> assay_value("CCCCCCCCCCCCCCC(=O)OC [methyl pentadecanoate]")
"7 % (w/w)"
>>> assay_value("CCCCCCCC/C=C\\CCCCCCCC(=O)OC [methyl oleate, methyl (Z)-octadec-9-enoate]")
"2 % (w/w)"
>>> assay_value("CCCCCCCCCCCCCCCCCC(=O)OC [methyl stearate, methyl octadecanoate]")
"0.5 % (w/w)"
>>> assay_value("CCCCCCCCCCCCCC(=O)OC [methyl myristate, methyl tetradecanoate]")
"27 % (w/w)"
>>> assay_value("CCCCCCCCCCCC(=O)OC [methyl laurate, methyl dodecanoate]")
"51 % (w/w)"
>>> assay_value("CCCCC/C=C\\C/C=C\\CCCCCCCC(=O)OC [methyl linoleate, methyl (9Z,12Z)-octadeca-9,12-dienoate]")
"3 % (w/w)"
>>> assay_value("CCCCCCCCCCCCCCCC(=O)OC [methyl palmitate, methyl hexadecanoate]")
"9.5 % (w/w)"

---

# ASSAY DETAILS: Ratios of molecules diffused through the sticks over time
# Assay type: physicochemical
# PROTOCOL CONDITIONS: Despecified pheromone (Core), 5 days after immersion of the sticks
Entries annotated with measured ratio of molecules diffused through the sticks
MEASURED METRIC: ratio of molecules diffused through the sticks

>>> assay_value("CCCCCCCCCCCCCCCC(=O)OC [methyl palmitate, methyl hexadecanoate]")
"19 % (w/w)"
>>> assay_value("CCCCCCCC/C=C\\CCCCCCCC(=O)OC [methyl oleate, methyl (Z)-octadec-9-enoate]")
"3 % (w/w)"
>>> assay_value("CCCCCCCCCCCCCC(=O)OC [methyl myristate, methyl tetradecanoate]")
"76 % (w/w)"
>>> assay_value("CCCCC/C=C\\C/C=C\\CCCCCCCC(=O)OC [methyl linoleate, methyl (9Z,12Z)-octadeca-9,12-dienoate]")
"2 % (w/w)"

---

# ASSAY DETAILS: Indirect assay of diffuser blocks (GC/FID, pheromone remaining in the block)
# Type: physicochemical
# PROTOCOL CONDITIONS: despecified pheromone, day 28
Reported % of the active ingredient in the pheromone by item:
MEASURED METRIC: % of the active ingredient in the pheromone (%)

>>> assay_value("CCCCCCCC/C=C\\CCCCCCCC(=O)OC [methyl oleate, methyl (Z)-octadec-9-enoate]")
30.7
>>> assay_value("CCCCC/C=C\\C/C=C\\CCCCCCCC(=O)OC [methyl linoleate, methyl (9Z,12Z)-octadeca-9,12-dienoate]")
30.5
>>> assay_value("CCCCCCCCCCCCCCCC(=O)OC [methyl palmitate, methyl hexadecanoate]")
27.1
>>> assay_value("CCCCCCCCCCCCCC(=O)OC [methyl myristate, methyl tetradecanoate]")
11.7

---

# ASSAY DETAILS: Indirect assay of rod diffuser solution (GC/FID)
# Format: physicochemical
# PROTOCOL CONDITIONS: stick diffuser solution, despecified pheromone, day 7
# Description: Solution integrity was checked at each analysis time. Before each indirect assay, the vial was weighed to visualize mass loss over time. Each vial contained six sticks. • Specifications: the solution must lose mass over time. • Result: Compliant—See FIG. 9 This is the same analytical method as for the diffuser block study, only the sample preparation differs. 1.25 g of solution were weighed into a 25 mL volumetric flask and the volume made up to the mark with acetone. […]
% of the active ingredient in the pheromone overview
MEASURED METRIC: % of the active ingredient in the pheromone (%)

>>> assay_value("CCCCCCCCCCCCCCCC(=O)OC [methyl palmitate, methyl hexadecanoate]")
27.3
>>> assay_value("CCCCCCCCCCCCCC(=O)OC [methyl myristate, methyl tetradecanoate]")
11.9
>>> assay_value("CCCCCCCC/C=C\\CCCCCCCC(=O)OC [methyl oleate, methyl (Z)-octadec-9-enoate]")
30.8
>>> assay_value("CCCCC/C=C\\C/C=C\\CCCCCCCC(=O)OC [methyl linoleate, methyl (9Z,12Z)-octadeca-9,12-dienoate]")
30.0

---

# ASSAY DETAILS: Ratios of molecules diffused through the sticks over time
# Format: physicochemical
# PROTOCOL CONDITIONS: F3P, 21 days after immersion of sticks (empty tank)
// reported ratio of molecules diffused through the sticks per item
MEASURED METRIC: ratio of molecules diffused through the sticks

>>> assay_value("COC(=O)CCCCCC(=O)OC [dimethyl pimelate, dimethyl heptanedioate]")
"36.5 % (w/w)"
>>> assay_value("CCCCCCCCCCCCCCCCCC(=O)OC [methyl stearate, methyl octadecanoate]")
"0.1 % (w/w)"
>>> assay_value("COC(=O)CCCCCCCC(=O)OC [dimethyl azelate, dimethyl nonanedioate]")
"31.3 % (w/w)"
>>> assay_value("CCCCCCCCCCCCCCCC(=O)OC [methyl palmitate, methyl hexadecanoate]")
"3.4 % (w/w)"
